Cited source: ChEMBL document CHEMBL4680177

Each entry below carries its reported EC50.
Tested on: J774
Experiment Description: Cytotoxicity against mouse J774 cells assessed as reduction in cell viability after 24 hrs by WST-1 assay
Assay type: cell-based
Condition Set: J774, 24 h

Substance Smiles	Reading Unit	Operator	EC50
CCOC(=O)c1csc(NC(=O)c2cc(NC(=O)c3csc(NC(=O)OC(C)(C)C)n3)cn2C)n1	µM	≥	40
COC(=O)c1nc(NC(=O)c2cc(NC(=O)c3nc(NC(=O)OC(C)(C)C)sc3C(C)C)cn2C)sc1C(C)C	µM	=	39.5
CCOC(=O)c1csc(NC(=O)c2csc(NC(=O)c3csc(NC(=O)OC(C)(C)C)n3)n2)n1	µM	=	5
